Property: pIC50; scope: individual compounds
Biological target: BRD4 bromo domain 1 [BRD4(1)] (Homo sapiens)
Construct: N-terminally His6-tagged BRD4(1) (amino acids 67-152)
Assay: BRD4/acetylated peptide H4 binding assay (TR-FRET), BRD4 bromo domain 1
Conditions: inhibition of BRD4(1)/Ac-H4 peptide interaction
// field semantics: pIC50 = negative decimal log of concentration (mol/L)

Examples with their reported pIC50 follow.
>>> recorded_measurement("COCCN1c2nc(Nc3cccc(C(=O)N4CCN(C)CC4)c3)ccc2N(C)C(=O)[C@H]1C (stereo in doubt) [Example 117]")
6.31
>>> recorded_measurement("C[C@@H]1C(=O)N(C)c2ccc(Nc3cccc(S(=O)(=O)N4CCOCC4)c3)nc2N1C1CCOCC1 [Example 9]")
7.55
>>> recorded_measurement("COc1ccc(S(=O)(=O)N2CCN(C)CC2)cc1Nc1ccc2c(n1)N(C1CCN(C)CC1)[C@H](C)C(=O)N2C [Example 46]")
7.29

# ---- query compound ----
Fill in: pIC50 of C[C@@H]1C(=O)N(C)c2ccc(Nc3cccc(S(=O)(=O)N4CCN(C)CC4)c3)nc2N1C1CCNCC1 [Example 125] is ___
7.43

###

Biological target: BRD4 bromo domain 1 [BRD4(1)] (Homo sapiens, UniProt O60885)
Construct: N-terminally His6-tagged BRD4(1) (amino acids 67-152)
Assay: BRD4/acetylated peptide H4 binding assay (TR-FRET), BRD4 bromo domain 1
Settings: inhibition of BRD4(1)/Ac-H4 peptide interaction
RECORDED_ENDPOINT: IC50 (nM)
Reply with just the number (in nM).

Use these answered entries as a reference point.
>>> recorded_measurement("C[C@@H]1C(=O)N(C)c2ccc(Nc3cccc(S(=O)(=O)NCCN(C)C)c3)nc2N1C1CCN(C(=O)OC(C)(C)C)CC1")
156
>>> recorded_measurement("C[C@@H]1C(=O)N(C)c2ccc(Nc3cccc(C(=O)N[C@H]4CC[C@H](N5CCN(CC6CC6)CC5)CC4)c3)cc2N1Cc1c(F)cccc1F")
708
>>> recorded_measurement("COc1ccc(S(=O)(=O)N2CCOCC2)cc1Nc1ccc2c(n1)N(C1CCN(C)CC1)[C@H](C)C(=O)N2C")
16

Given the compound C[C@@H]1C(=O)N(C)c2ccc(Nc3cccc(S(=O)(=O)N4CCOCC4)c3)cc2N1C1CCOCC1 , what is its reported IC50?
79

IC50 lookup needed for C[C@@H]1C(=O)N(C)c2ccc(Nc3cccc(S(=O)(=O)N4CCN(CC(F)(F)F)CC4)c3)nc2N1C1CCN(C(=O)OC(C)(C)C)CC1 , thanks.
1110

Need IC50 of C[C@@H]1C(=O)N(C)c2ccc(Nc3cccc(S(=O)(=O)N(C)C)c3)nc2N1C1CCOCC1 , thanks.
27

Reported IC50 for COc1ccc(C(=O)N[C@H]2CC[C@@H](N3CCN(C4CC4)CC3)CC2)cc1Nc1ccc2c(n1)N(C1CCOCC1)[C@H](C)C(=O)N2C : what is it?
430

###

Target: BRD4 bromo domain 2 [BRD4(2)] (Homo sapiens)
Construct: N-terminally His6-tagged BRD4(2) (amino acids 357-445)
Test: BRD4/acetylated peptide H4 binding assay (TR-FRET), BRD4 bromo domain 2
Conditions: inhibition of BRD4(2)/Ac-H4 peptide interaction
RECORDED_ENDPOINT: IC50 (nM)
The reply should be a number in nM, with the unit left off.

Solved entries:
>>> recorded_measurement("C[C@@H]1C(=O)N(C)c2ccc(Nc3cccc(C(=O)N4CCN(C)CC4)c3)cc2N1C1CCOCC1 [Example 106]")
817
>>> recorded_measurement("CC1C(=O)N(C)c2ccc(Nc3cccc(S(=O)(=O)N4CCN(C)CC4)c3)nc2N1c1ccc(N2CCN(C(=O)OC(C)(C)C)CC2)cc1 (stereo not drawn) [Example 67]")
5190

For COc1ccc(Nc2ccc3c(n2)N(C2CCOCC2)[C@H](C)C(=O)N3C)cc1C(=O)N[C@H]1CC[C@H](N2CCN(CC3CC3)CC2)CC1 [Example 82] , what is its reported IC50?
337
